Reported IC50 against Cannabinoid receptor 2 (Homo sapiens), gathered from multiple publications, appears below.
Sequence (P34972 whole entry): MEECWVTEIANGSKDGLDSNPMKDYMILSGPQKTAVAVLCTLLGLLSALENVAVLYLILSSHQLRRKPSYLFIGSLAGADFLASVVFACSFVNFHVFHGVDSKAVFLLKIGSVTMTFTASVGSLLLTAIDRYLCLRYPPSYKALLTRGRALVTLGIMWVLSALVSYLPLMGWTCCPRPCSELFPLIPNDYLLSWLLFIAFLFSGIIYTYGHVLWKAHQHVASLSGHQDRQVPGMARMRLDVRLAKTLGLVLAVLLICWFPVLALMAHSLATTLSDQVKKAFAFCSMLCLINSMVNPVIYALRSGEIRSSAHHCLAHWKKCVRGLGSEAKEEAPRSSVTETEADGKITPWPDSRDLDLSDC
recorded-endpoint: IC50 (nM)

Known results for compounds:
The compound listed as "CCC(N)(C#Cc1nc(-c2ccccc2Cl)c(-c2ccc(Cl)cc2)cc1C#N)CC" has a reported IC50 of 1100

The compound listed as "CCC(=O)c1oc2nc(-c3ccccc3Cl)c(-c3ccc(Cl)cc3)cc2c1N" has a reported IC50 of 1000

[1] CC(=O)c1c(C)c2cc(-c3ccc(Cl)cc3)c(-c3ccc(Cl)cc3Cl)nc2n(C)c1=O
[2] N#Cc1cc(-c2ccc(Cl)cc2)c(-c2ccc(Cl)cc2Cl)nc1N1CCCCC1
Exercise: compare 1 and 2 ; which one has the greater IC50? Answer by quoting the chosen item's label. 2
